Target: Alpha-1B adrenergic receptor (Homo sapiens)
Sequence (whole entry): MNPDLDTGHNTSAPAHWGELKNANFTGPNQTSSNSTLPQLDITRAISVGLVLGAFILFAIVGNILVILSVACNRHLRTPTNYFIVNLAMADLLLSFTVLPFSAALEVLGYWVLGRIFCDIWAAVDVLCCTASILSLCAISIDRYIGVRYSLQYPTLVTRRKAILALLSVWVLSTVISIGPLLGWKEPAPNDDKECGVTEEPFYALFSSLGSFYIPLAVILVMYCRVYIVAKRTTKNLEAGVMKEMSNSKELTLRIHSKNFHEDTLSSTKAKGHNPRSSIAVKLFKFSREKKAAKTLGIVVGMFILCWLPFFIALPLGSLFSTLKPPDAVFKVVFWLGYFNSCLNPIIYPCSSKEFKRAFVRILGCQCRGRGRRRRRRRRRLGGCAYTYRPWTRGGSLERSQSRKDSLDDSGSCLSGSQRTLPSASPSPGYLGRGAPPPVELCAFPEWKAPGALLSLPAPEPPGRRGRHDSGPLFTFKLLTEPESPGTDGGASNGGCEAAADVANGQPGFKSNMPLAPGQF
Details: Compound concentration 10 µM
Description: PDSP Primary Binding target: ADRA1B - Compounds are tested at 10 uM concentration, plate are incubated at room temperature in the dark for 90 minutes. Reaction are stopped by vacuum filtration onto 0.3% polyethyleneimine soaked filter mats using Filtermate harvester. Scintilation cocktail is then melted onto microwave-dried filters on a hot plate and the radio activity is counted in Microbia counter.
Reported metric: inhibition (%)
Your answer is read as %, so omit the unit and give the number.

Some compounds with known inhibition results, for comparison:
{"columns": ["Entry smiles", "U", "inhibition"],
 "data": [
  ["C[N+]1(C)[C@@H]2C[C@@H](OC(=O)C(O)(c3cccs3)c3cccs3)C[C@H]1[C@@H]1O[C@@H]12", "%", -7.35],
  ["S=C(NCCCc1c[nH]cn1)NCCCN(Cc1ccc(Cl)c(Cl)c1)c1ccc(Br)cn1", "%", 89.3]
]}

# input for lookup
QUERY: Kindly indicate its recorded inhibition. Item: `Cc1nc(-c2ccc(-c3ccc(C(=O)N4CCc5cc6c(cc54)C4(CCN(C)CC4)CO6)cc3)c(C)c2)no1`
RESULT: 16.4

* * *

// inhibition lookup, one value per entry
Target: Mu-type opioid receptor (Homo sapiens) (UniProt P35372)
Sequence (P35372 whole entry): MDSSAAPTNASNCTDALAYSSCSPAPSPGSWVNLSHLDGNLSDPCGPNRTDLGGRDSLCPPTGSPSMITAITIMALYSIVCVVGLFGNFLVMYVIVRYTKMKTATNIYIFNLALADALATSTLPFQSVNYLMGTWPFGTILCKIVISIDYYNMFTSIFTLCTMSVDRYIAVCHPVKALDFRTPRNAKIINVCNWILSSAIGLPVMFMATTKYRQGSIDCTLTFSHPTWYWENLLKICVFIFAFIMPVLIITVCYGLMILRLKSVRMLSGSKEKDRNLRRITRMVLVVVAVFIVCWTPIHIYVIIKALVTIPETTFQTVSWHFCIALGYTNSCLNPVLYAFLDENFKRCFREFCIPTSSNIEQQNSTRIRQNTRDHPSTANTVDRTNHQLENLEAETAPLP
Details: Compound concentration 10 µM
Description: PDSP Primary Binding target: OPRM1 - Compounds are tested at 10 uM concentration, plate are incubated at room temperature in the dark for 90 minutes. Reaction are stopped by vacuum filtration onto 0.3% polyethyleneimine soaked filter mats using Filtermate harvester. Scintilation cocktail is then melted onto microwave-dried filters on a hot plate and the radio activity is counted in Microbia counter.
Please reply with the bare figure in % and do not write the unit itself.

{"columns": ["Molecule", "Reported metric", "Recorded number"],
 "data": [
  ["COc1ccc(NC(=O)c2ccc(-c3ccc(-c4noc(C)n4)cc3C)cc2)cc1OCCN(C)C", "inhibition", 5.21]
]}

QUERY: # return recorded inhibition for entry `NC(=O)[C@@H]1CCCN1C(=O)[C@H](Cc1c[nH]cn1)NC(=O)[C@@H]1CCC(=O)N1`
RESULT: 45.1

QUERY: Please give measured inhibition of the following entry: `c1ccc(N2CCN(Cc3nc4ccccc4[nH]3)CC2)nc1`
RESULT: 4.96

QUERY: Name the recorded inhibition of the item `CN[C@@H]1CCc2[nH]c3ccc(C(N)=O)cc3c2C1` in your answer.
RESULT: 54.7

QUERY: Dear colleague, please send me the reported inhibition for `Cc1nn(C)c(C)c1-c1cccc2c1CC[C@H](N(C)C)C2` when you can.
RESULT: 14.6

QUERY: Give me measured inhibition, please, for this molecule: `COc1cc2c(CCNC(C)=O)c[nH]c2cc1Cl`
RESULT: -1.77

QUERY: Return inhibition for the following molecule: `COc1ccccc1N1CCN(CCCCNC(=O)c2ccc3ccccc3c2)CC1`
RESULT: 79.8

QUERY: Identify the reported inhibition for the following entry. `CS(=O)(=O)NC[C@H]1CC[C@H](Nc2nc3c(s2)CCSc2ccccc2-3)CC1`
RESULT: -6.3

QUERY: Look up inhibition of `C[N+]1(C)[C@@H]2C[C@@H](OC(=O)C(O)(c3cccs3)c3cccs3)C[C@H]1[C@@H]1O[C@@H]12` and report it.
RESULT: 10.3
